target.desc: acetylcholine receptor
protocol: SPR, AchR on CM5 chip, peptide 10 µM
property.label: Binding affinity (RU)

binder	measure.unit	Binding affinity (RU)
RKIHNK [6mer-1-1183]	RU	35
KKTCHR [6mer-1-1182]	RU	35
KRHEFK [6mer-1-1143]	RU	32
KRDCFR [6mer-1-1138]	RU	21
RRFNFR [6mer-1-1172]	RU	23

A. KKYNPK [6mer-1-1170]
B. KKNNAK [6mer-1-1186]
In: Between the two listed entries A and B , which has its Binding affinity (RU) at the higher number? Respond using the label that marks the chosen record.
Out: B
(B: 37 RU, A: 25 RU)

Reference for the values: patent US20250011363A1
